B1: glmS ribozyme (parent)
chain: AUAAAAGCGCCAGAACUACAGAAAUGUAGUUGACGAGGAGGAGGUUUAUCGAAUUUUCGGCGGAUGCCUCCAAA

variants of: B1; test: self-cleavage kobs at 2500 uM GlcN6P; higher = faster cleavage; RNA array; conditions: with glucosamine-6-phosphate
Fewer inactive variants are shown than the library holds.
# reported self-cleavage kobs at 2500 uM GlcN6P; entries follow
propertyMeasured: self-cleavage kobs at 2500 uM GlcN6P

>  <querySequence>
UGGAAAGGGCCUGAACUACAGAAAUGUAGUUGACGAGGAGGAGGUUUAUCGAAUUUUCGGCGCAUGCAUCCAAA [A1U U2G A3G C8G A12U G63C C68A]

>  <propertyMeasured>
self-cleavage kobs at 2500 uM GlcN6P

>  <reading>
< 1e-05 s⁻¹

$$$$
>  <querySequence>
AUAAAAGCGCCAGAACUACAGAAAUGUAGUUGACGAUGGGGAGGUUUAUCGAAUUUUCGGCGGAUGCCUCCAAA [G37U A39G]

>  <propertyMeasured>
self-cleavage kobs at 2500 uM GlcN6P

>  <reading>
< 1e-05 s⁻¹

$$$$
>  <querySequence>
AUAAAAGCGCCAGAACUACAGAAAUGUAGUUGACGAGGAGGAGGCUUAUCGAAUUUUCGGCUGAUGCCUCCAAA [U45C G62U]

>  <propertyMeasured>
self-cleavage kobs at 2500 uM GlcN6P

>  <reading>
< 1e-05 s⁻¹

$$$$
>  <querySequence>
AUAAAAGCGCAAGAACUACAGAAAUGUAGUUGGCGAGGAGGAGGUUUCUCGAAUUUUCGGCGGAUGUCUCCAAA [C11A A33G A48C C67U]

>  <propertyMeasured>
self-cleavage kobs at 2500 uM GlcN6P

>  <reading>
< 1e-05 s⁻¹

$$$$
>  <querySequence>
AUAAAAGCGCUAGAACUACAGAAAUGUAGUUGACGAGGAGGACGUUUAUCGAAUUUUCGGCGGAUGCCUCCAAA [C11U G43C]

>  <propertyMeasured>
self-cleavage kobs at 2500 uM GlcN6P

>  <reading>
< 1e-05 s⁻¹

$$$$
>  <querySequence>
AUAAAAGCGCCAGAACUACAGAAAUGUAGUUGAUGAGGAGGAGGUUCAUCGAAUUUUCGGCGGAUGCCUCCAAA [C34U U47C]

>  <propertyMeasured>
self-cleavage kobs at 2500 uM GlcN6P

>  <reading>
< 1e-05 s⁻¹

$$$$
>  <querySequence>
AUAAAAGCGCCAGAACUACAGAAAUGUAGUUAACGAGGAGGAGGUUUAUCGAACUUUCGGCGGAUGUCUCCAAA [G32A U54C C67U]

>  <propertyMeasured>
self-cleavage kobs at 2500 uM GlcN6P

>  <reading>
0.000349 s⁻¹

$$$$
>  <querySequence>
AUAAAAGCGCCAGAACUACAGAAAUGUAGUUGACGAGGAGGAGGUUGAUCGAAUUUUUGGCGGAUGCCUACAAA [U47G C58U C70A]

>  <propertyMeasured>
self-cleavage kobs at 2500 uM GlcN6P

>  <reading>
9.31e-05 s⁻¹

$$$$
>  <querySequence>
AUAAAAGCACCAGAACUACAGAAAUGUAGUUGACGAGGAGGAGGUGUAUCGAAUUUACGGCGGAUGCCUCCAAA [G9A U46G U57A]

>  <propertyMeasured>
self-cleavage kobs at 2500 uM GlcN6P

>  <reading>
< 1e-05 s⁻¹

$$$$
>  <querySequence>
AUAAAAGUGCCAGAACUACAGAAAUGUAGUUGACGAGGAGGAGAUUUAUCGAAUUUUCGGCGGAUGCCUCCAAA [C8U G44A]

>  <propertyMeasured>
self-cleavage kobs at 2500 uM GlcN6P

>  <reading>
< 1e-05 s⁻¹

$$$$
>  <querySequence>
AUAAAAGCGCCAGAAGUACAGAAAUGUAGUUGACGAGGAGGAGGUUUAUCGAAUUUUCGGCGGAUGUCUCCAAA [C16G C67U]

>  <propertyMeasured>
self-cleavage kobs at 2500 uM GlcN6P

>  <reading>
0.000504 s⁻¹

$$$$
>  <querySequence>
AUAAAAGCGCCAGAGCUACAGAAAUGUAGUUGACGAGGAUGAGGUUUAUCGAAUUUUCGGCGGAUGCCUACAAA [A15G G40U C70A]

>  <propertyMeasured>
self-cleavage kobs at 2500 uM GlcN6P

>  <reading>
0.000773 s⁻¹

$$$$
>  <querySequence>
AUAAAAGCGCCAGAAUUACAGAAAUGUAGCUUACUAGGAGGAGGUUGAUCGAAUUUUCGGCGGAUGCCUCCAAA [C16U U30C G32U G35U U47G]

>  <propertyMeasured>
self-cleavage kobs at 2500 uM GlcN6P

>  <reading>
< 1e-05 s⁻¹

$$$$
>  <querySequence>
AUAAAAGCGCCAGAACUACAGAAAUGUAGUUGAUGAGGAUGAGGUUUAUCGAAUUUUCGGCGGAUGCCUCCAAA [C34U G40U]

>  <propertyMeasured>
self-cleavage kobs at 2500 uM GlcN6P

>  <reading>
< 1e-05 s⁻¹

$$$$
>  <querySequence>
AUAAAAGCGCCAGGACUACAGAAAUGUAGUUGACGAGGAGGGGGUUUAUCGUAUUUUCGGCGGAUGCCUCCAAA [A14G A42G A52U]

>  <propertyMeasured>
self-cleavage kobs at 2500 uM GlcN6P

>  <reading>
9.16e-05 s⁻¹

$$$$
>  <querySequence>
AUAAAAGCGCCAGAACUACAGAAAUGUAGUUGCCGAGAAGGAGGUUUAUCGAAUUUUUGGCGGACGCCUCCAAA [A33C G38A C58U U65C]

>  <propertyMeasured>
self-cleavage kobs at 2500 uM GlcN6P

>  <reading>
< 1e-05 s⁻¹

$$$$
>  <querySequence>
AUAAAAGCGCCAGAGCUACAGAAAUGUAGUUAACGAGGAGGAGGUUUAUCGAAUUUUCGGCGGAUGCCUCGAAA [A15G G32A C71G]

>  <propertyMeasured>
self-cleavage kobs at 2500 uM GlcN6P

>  <reading>
0.000277 s⁻¹

$$$$
>  <querySequence>
AUAAAAGCGCCACAACUACAGAAAUGUAGUUGAGCAGGAGGAGGUUUAUCGCAUUUUCGGCGGAUGCCUCCAAA [G13C C34G G35C A52C]

>  <propertyMeasured>
self-cleavage kobs at 2500 uM GlcN6P

>  <reading>
< 1e-05 s⁻¹

$$$$
>  <querySequence>
AUAAAAGCGCCAGAACUACAGAAAUGUAGUUGACGAGGCGGAGGUUUAUCGCAUUUUCGGCGGAUGCCUCAAAA [A39C A52C C71A]

>  <propertyMeasured>
self-cleavage kobs at 2500 uM GlcN6P

>  <reading>
< 1e-05 s⁻¹

$$$$
>  <querySequence>
AUAAAGGCGCGACAACUACAGAAAUGUAGUUGACGAGGAGGAGGUUUAUCGAAUUUUCGGGGGAUGCCUCCAAA [A6G C11G G13C C61G]

>  <propertyMeasured>
self-cleavage kobs at 2500 uM GlcN6P

>  <reading>
< 1e-05 s⁻¹

$$$$
>  <querySequence>
AUAAAAGCGCUAGAACUACAGAAAUGUAGUUGACCAGGAGGAGGUAUAUCGAAUUUUCGGCGGAUGCCGCCAAA [C11U G35C U46A U69G]

>  <propertyMeasured>
self-cleavage kobs at 2500 uM GlcN6P

>  <reading>
< 1e-05 s⁻¹

$$$$
>  <querySequence>
AUAAAAGCGCCAGAACUACAGAAAUGUAGUUGACGAGGAGGAGGUAUAUCGAAUUCUCGGCGGAUGCAUCCAAA [U46A U56C C68A]

>  <propertyMeasured>
self-cleavage kobs at 2500 uM GlcN6P

>  <reading>
< 1e-05 s⁻¹

$$$$
>  <querySequence>
AUAAAAGCGCCAGAACUACAGAAAUGUAGGUGACGAGGAGGGGGUUUAUCGAAUUUUCGGCGGAUACCUCAAAA [U30G A42G G66A C71A]

>  <propertyMeasured>
self-cleavage kobs at 2500 uM GlcN6P

>  <reading>
0.000159 s⁻¹

$$$$
>  <querySequence>
AUAAAAGCGCCAGAACUACAGAAAUGUAGUUGACGAUGAGGAGAUUUAUCGUUUUUUCGGCGGAUGCCUCCAAA [G37U G44A A52U A53U]

>  <propertyMeasured>
self-cleavage kobs at 2500 uM GlcN6P

>  <reading>
< 1e-05 s⁻¹

$$$$
>  <querySequence>
AUAAAAGCGCCAGAACUACAGAAAUGUAGUUGACGAGGAGGAGGUUUAUCGAAUUUUCGGCGGAUACUUCCAAA [G66A C68U]

>  <propertyMeasured>
self-cleavage kobs at 2500 uM GlcN6P

>  <reading>
0.00284 s⁻¹

$$$$
>  <querySequence>
AUAAAAGCGCCAGAACUACAGAAAUGUAGUUGAAAAGGAGGGGGUUUAUCGAAUUUUCGGCGGAUGCCUCCAAA [C34A G35A A42G]

>  <propertyMeasured>
self-cleavage kobs at 2500 uM GlcN6P

>  <reading>
< 1e-05 s⁻¹

$$$$
>  <querySequence>
AUAAAUUCGCCAGAACUACAGAAAUGUAGUUGACUAGGAGGAGGUUUAUCGAAAUUUCGGCGGAUGCCUCCAAA [A6U G7U G35U U54A]

>  <propertyMeasured>
self-cleavage kobs at 2500 uM GlcN6P

>  <reading>
< 1e-05 s⁻¹

$$$$
>  <querySequence>
AUAAAAGCGCUAGAACUACAGAAAUGUAGUUGACGAGGAGGAGGUUUAUGGAAUUUUCGGCGGAUGCGUCCAAA [C11U C50G C68G]

>  <propertyMeasured>
self-cleavage kobs at 2500 uM GlcN6P

>  <reading>
0.000141 s⁻¹

$$$$
>  <querySequence>
AUAAAAGCGCCAGAACUACAGAAAUGUAAUUCACGAGGAGGAGGUUUAUCGAAUUUUCGGCGGUUGCCUCCAAA [G29A G32C A64U]

>  <propertyMeasured>
self-cleavage kobs at 2500 uM GlcN6P

>  <reading>
< 1e-05 s⁻¹

$$$$
>  <querySequence>
AUAAAAGCGCCAGAACUACAGAAAUGUAGUUGACGAGGAGGAGGAUUAUCCAAUUUUCGACGGAUGCCUCUAAA [U45A G51C G60A C71U]

>  <propertyMeasured>
self-cleavage kobs at 2500 uM GlcN6P

>  <reading>
< 1e-05 s⁻¹

$$$$
>  <querySequence>
AUAAACGCGCCAGAACUACAGAAAUGUAGUUGACGAGGAUGAGGUUUAUCGAAUUUUCGGAGGAUGCCUCCAAA [A6C G40U C61A]

>  <propertyMeasured>
self-cleavage kobs at 2500 uM GlcN6P

>  <reading>
< 1e-05 s⁻¹

$$$$
>  <querySequence>
AUAAAAGCGCCAGAACUACAGAAAUGUAGUUGACGAGGAGGAGGUUUCUCGUAUUUUCGGCGGAUGCCUCCAAA [A48C A52U]

>  <propertyMeasured>
self-cleavage kobs at 2500 uM GlcN6P

>  <reading>
< 1e-05 s⁻¹

$$$$
>  <querySequence>
AUAAAAGCGCCAGAACUACAGAAAUGUAGUUGAUGAGGAGGAGGUUUAUCGAAUUUUCAGCGGAUGCCUCCAAA [C34U G59A]

>  <propertyMeasured>
self-cleavage kobs at 2500 uM GlcN6P

>  <reading>
< 1e-05 s⁻¹

$$$$
>  <querySequence>
AUAAAAGCGCCAGUACUACAGAAAUGUAGUUGACGAGGAGGAGGUUUAUCGAAUUUACGGCGGGUGCCUCCAAA [A14U U57A A64G]

>  <propertyMeasured>
self-cleavage kobs at 2500 uM GlcN6P

>  <reading>
3.21e-05 s⁻¹

$$$$
>  <querySequence>
AUAAAAGGGCCAGGACUACAGAAAUGUAGUUGACGAGGAGGAGCUUUAUCGAAAUUUCGGCGGAUGCCUCUAAA [C8G A14G G44C U54A C71U]

>  <propertyMeasured>
self-cleavage kobs at 2500 uM GlcN6P

>  <reading>
< 1e-05 s⁻¹

$$$$
>  <querySequence>
AUAAACUCGCCAGAACUACAGAAAUGUAGUUGACGAGGAGGAGGUUUAUCGAACUUUCGGCGGAUGCCUCCAAA [A6C G7U U54C]

>  <propertyMeasured>
self-cleavage kobs at 2500 uM GlcN6P

>  <reading>
< 1e-05 s⁻¹

$$$$
>  <querySequence>
AUAAAAGCGCCAGAACUACAGAAAUGUAGUUGACGAGGAGGAGGUUUAUCGUAUUUUCGGCGGAUGCCCCCAAA [A52U U69C]

>  <propertyMeasured>
self-cleavage kobs at 2500 uM GlcN6P

>  <reading>
0.000152 s⁻¹

$$$$
>  <querySequence>
AUAAAAGUGCCAGAACUACAGAAAUGUAGUUGACGAGGAGGAGGUUUAUCGAAUUUUCGGCGCAUGCCUCCAAA [C8U G63C]

>  <propertyMeasured>
self-cleavage kobs at 2500 uM GlcN6P

>  <reading>
< 1e-05 s⁻¹

$$$$

Just for reference, the supplement of paper PMC7125110 is where these values come from.
